Reference for the values: patent US7495015B2

TESTED ON: p38 MAP kinase (Homo sapiens)
Construct: made in house; host or cells: E. coli (co-expressed with SEK-1 and MEKK to obtain the phosphorylated form)
Sequence (Q16539 whole entry): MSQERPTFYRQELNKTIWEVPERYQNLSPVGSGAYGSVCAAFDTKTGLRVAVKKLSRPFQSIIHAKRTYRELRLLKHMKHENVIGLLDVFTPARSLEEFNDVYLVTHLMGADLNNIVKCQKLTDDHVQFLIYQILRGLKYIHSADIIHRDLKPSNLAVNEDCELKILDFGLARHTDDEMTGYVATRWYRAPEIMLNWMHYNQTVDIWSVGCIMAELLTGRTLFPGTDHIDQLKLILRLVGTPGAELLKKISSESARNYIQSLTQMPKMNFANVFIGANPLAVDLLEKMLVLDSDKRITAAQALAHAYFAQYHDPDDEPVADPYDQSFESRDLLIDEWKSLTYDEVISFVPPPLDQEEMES
ASSAY OVERVIEW: p38 (MAP) kinase in vitro assay (transfer of γ-phosphate from γ-33P-ATP to Myelin Basic Protein)
Type: biochemical
EXPERIMENTAL SETUP: phosphorylated recombinant p38 MAP kinase, MBP substrate, 30° C.
Protocol: This example illustrates a p38 (MAP) kinase in vitro assay useful for evaluating the compounds of the invention. The p38 MAP kinase inhibitory activity of compounds of this invention in vitro was determined by measuring the transfer of the γ-phosphate from γ-^33P-ATP by p-38 kinase to Myelin Basic Protein (MBP), using a minor modification of the method described in Ahn, et al., J. Biol. Chem. 266:4220-4227 (1991). […]
ENDPOINT LABEL: IC50 (nM)
Express the result in nM but write the number alone.

# return recorded IC50 for input Oc1ccc(-c2n[nH]c3cc(Oc4ccccc4F)ccc23)cc1 [Compound 35]
28
